- assayedSystem: S6K1 (Homo sapiens, UniProt P23443)
- Sequence (P23443 whole entry): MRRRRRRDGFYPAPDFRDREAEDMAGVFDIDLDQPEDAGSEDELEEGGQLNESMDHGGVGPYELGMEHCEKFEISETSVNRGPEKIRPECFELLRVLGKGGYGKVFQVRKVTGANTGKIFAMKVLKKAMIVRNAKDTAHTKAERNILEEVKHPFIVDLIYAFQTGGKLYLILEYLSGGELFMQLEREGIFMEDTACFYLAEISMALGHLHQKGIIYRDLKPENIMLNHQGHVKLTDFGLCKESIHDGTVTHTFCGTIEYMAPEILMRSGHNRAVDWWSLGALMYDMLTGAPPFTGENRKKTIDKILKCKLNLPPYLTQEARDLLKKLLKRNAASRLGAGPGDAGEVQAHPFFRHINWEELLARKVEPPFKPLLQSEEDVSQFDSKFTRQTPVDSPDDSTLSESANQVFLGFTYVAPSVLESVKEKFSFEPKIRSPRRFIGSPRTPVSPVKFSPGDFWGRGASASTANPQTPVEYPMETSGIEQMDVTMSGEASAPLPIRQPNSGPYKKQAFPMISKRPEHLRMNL
measuredProperty: pIC50
// field semantics: pIC50 = negative decimal log of concentration (mol/L)

Value wanted: pIC50 (S6K1 (Homo sapiens, UniProt P23443)) of entry C[C@@H]1C[C@@H](O)c2ncnc(N3CCN(C(=O)[C@H](CNCCCCCCCCCCc4cccc5c4CN(C4CCC(=O)NC4=O)C5=O)c4ccc(Cl)cc4)CC3)c21 (stereo partly shown) [INY-03-041]
7.43

---

- assayedSystem: RET (V804M) (Homo sapiens, UniProt P07949, V804M)
- Sequence (P07949 29-1114 V804M): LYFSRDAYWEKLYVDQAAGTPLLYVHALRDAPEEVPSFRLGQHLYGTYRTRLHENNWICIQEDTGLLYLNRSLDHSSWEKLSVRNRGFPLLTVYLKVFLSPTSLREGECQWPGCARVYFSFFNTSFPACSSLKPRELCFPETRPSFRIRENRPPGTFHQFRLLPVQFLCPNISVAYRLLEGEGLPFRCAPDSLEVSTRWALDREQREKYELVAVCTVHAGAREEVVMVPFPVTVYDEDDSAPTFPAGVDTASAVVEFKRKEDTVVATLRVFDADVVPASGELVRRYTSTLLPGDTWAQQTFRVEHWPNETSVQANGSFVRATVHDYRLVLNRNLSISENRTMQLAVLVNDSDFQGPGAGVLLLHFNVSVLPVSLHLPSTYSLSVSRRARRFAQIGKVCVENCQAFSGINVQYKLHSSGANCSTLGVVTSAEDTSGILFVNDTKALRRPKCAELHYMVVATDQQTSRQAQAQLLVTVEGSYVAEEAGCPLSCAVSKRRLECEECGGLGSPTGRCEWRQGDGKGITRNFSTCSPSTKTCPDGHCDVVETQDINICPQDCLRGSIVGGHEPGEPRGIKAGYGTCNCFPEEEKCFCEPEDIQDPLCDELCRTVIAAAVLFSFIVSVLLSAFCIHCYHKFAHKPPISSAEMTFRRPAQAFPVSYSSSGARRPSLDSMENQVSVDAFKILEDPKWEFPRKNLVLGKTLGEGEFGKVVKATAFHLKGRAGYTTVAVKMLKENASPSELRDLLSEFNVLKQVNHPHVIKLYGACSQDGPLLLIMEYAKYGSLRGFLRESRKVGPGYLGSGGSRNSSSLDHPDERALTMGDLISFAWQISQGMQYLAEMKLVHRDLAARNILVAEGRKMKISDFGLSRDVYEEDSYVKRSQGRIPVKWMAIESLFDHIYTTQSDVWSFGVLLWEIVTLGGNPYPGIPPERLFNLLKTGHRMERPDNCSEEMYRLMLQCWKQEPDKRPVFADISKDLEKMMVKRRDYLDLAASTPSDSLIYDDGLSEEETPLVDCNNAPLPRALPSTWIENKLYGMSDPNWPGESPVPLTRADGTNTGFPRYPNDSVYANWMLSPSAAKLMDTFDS
- assayComment: LanthaScreen assay, RET
measuredProperty: IC50

Please give the measured IC50 for this molecule: C[C@@H]1C[C@@H](O)c2ncnc(N3CCN(C(=O)[C@H](CNCCCCCCCCCCc4cccc5c4CN(C4CCC(=O)NC4=O)C5=O)c4ccc(Cl)cc4)CC3)c21 (stereo partly shown)
> 10 µM

---

- assayedSystem: AKT3 (Homo sapiens, UniProt Q9Y243)
- Sequence (Q9Y243 whole entry): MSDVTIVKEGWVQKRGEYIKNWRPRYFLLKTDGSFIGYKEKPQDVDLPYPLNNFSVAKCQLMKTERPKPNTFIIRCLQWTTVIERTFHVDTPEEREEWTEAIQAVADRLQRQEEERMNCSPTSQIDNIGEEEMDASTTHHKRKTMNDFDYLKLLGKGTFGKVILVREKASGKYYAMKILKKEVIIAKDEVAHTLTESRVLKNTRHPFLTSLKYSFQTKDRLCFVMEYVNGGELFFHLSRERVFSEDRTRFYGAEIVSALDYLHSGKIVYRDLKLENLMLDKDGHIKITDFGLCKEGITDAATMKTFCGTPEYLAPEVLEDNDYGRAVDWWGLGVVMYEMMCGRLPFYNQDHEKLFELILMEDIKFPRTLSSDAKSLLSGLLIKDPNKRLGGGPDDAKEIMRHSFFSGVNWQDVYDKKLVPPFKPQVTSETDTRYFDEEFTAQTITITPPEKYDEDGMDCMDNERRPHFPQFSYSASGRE
- assayComment: Z'-LYTE FRET-based kinase inhibition assay, AKT3
- Format: biochemical
measuredProperty: IC50 (nM)
Give just the number in nM; leave the unit off.

Value wanted: IC50 (AKT3 (Homo sapiens, UniProt Q9Y243)) of entry C[C@@H]1C[C@@H](O)c2ncnc(N3CCN(C(=O)[C@H](CNCCCCCCCCCCc4cccc5c4CN(C4CCC(=O)NC4=O)C5=O)c4ccc(Cl)cc4)CC3)c21 (stereo partly shown) [INY-03-041]
3.5

---

- assayedSystem: AKT1 (Homo sapiens, UniProt P31749)
- Sequence (P31749 whole entry): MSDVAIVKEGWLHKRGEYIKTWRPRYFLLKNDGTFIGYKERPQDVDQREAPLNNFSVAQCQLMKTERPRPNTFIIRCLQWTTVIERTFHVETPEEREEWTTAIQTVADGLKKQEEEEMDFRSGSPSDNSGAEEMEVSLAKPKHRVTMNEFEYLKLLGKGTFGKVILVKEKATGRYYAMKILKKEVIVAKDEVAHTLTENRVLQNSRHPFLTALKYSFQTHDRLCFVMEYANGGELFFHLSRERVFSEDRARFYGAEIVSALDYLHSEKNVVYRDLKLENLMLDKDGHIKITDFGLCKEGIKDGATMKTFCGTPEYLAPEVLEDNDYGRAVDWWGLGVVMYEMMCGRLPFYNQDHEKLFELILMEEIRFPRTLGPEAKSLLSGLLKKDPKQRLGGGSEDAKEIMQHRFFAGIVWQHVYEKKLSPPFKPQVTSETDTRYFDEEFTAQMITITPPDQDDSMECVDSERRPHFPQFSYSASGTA
measuredProperty: IC50 (nM)
Give just the number in nM; leave the unit off.

Value wanted: IC50 (AKT1 (Homo sapiens, UniProt P31749)) of entry C[C@@H]1C[C@@H](O)c2ncnc(N3CCN(C(=O)[C@H](CNCCCCCCCCCCc4cccc5c4CN(C4CCC(=O)NC4=O)C5=O)c4ccc(Cl)cc4)CC3)c21 (stereo partly shown)
2

---

- assayedSystem: UniProt:Q13976
- Sequence (Q13976 whole entry): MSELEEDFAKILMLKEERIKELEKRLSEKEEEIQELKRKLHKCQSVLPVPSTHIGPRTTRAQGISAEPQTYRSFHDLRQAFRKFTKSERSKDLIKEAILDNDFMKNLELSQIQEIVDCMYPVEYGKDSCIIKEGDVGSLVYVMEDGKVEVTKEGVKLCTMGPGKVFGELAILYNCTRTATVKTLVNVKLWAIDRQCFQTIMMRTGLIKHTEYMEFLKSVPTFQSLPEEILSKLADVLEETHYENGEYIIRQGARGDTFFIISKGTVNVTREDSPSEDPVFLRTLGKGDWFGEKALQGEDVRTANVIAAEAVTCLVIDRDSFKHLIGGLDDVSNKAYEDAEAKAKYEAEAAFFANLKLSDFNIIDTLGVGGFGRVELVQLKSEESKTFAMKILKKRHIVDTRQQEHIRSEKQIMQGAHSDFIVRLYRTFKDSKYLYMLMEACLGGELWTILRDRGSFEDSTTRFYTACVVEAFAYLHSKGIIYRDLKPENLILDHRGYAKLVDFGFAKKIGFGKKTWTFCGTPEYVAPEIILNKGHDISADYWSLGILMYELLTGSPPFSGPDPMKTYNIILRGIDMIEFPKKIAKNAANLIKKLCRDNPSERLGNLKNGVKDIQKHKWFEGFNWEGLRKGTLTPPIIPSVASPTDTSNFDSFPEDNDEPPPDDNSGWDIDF
measuredProperty: IC50 (nM)
Give just the number in nM; leave the unit off.

Value wanted: IC50 (UniProt:Q13976) of entry C[C@@H]1C[C@@H](O)c2ncnc(N3CCN(C(=O)[C@H](CNCCCCCCCCCCc4cccc5c4CN(C4CCC(=O)NC4=O)C5=O)c4ccc(Cl)cc4)CC3)c21 (stereo partly shown)
33.2
